The measurements presented in this section are drawn from patent US8614201B2.

target: Human TRPA1 (Homo sapiens, UniProt O75762); experiment: Assay 1: In vitro cellular testing of TRPA1 modulation (CHO-TREx, Fluo-3 calcium fluorescence, AITC agonist); assay type: cell-based; set-up: expressed in transfected cells; host or cells: CHO-TREx cells (Invitrogen), vector pcDNA4/TO; details: CHO-TREx cells expressing human TRPA1; Fluo-3 fluorescence (FLIPR/Tetra); agonist 15 μM allyl isothiocyanate (AITC); 30 minute antagonist incubation
Sequence (O75762 whole entry): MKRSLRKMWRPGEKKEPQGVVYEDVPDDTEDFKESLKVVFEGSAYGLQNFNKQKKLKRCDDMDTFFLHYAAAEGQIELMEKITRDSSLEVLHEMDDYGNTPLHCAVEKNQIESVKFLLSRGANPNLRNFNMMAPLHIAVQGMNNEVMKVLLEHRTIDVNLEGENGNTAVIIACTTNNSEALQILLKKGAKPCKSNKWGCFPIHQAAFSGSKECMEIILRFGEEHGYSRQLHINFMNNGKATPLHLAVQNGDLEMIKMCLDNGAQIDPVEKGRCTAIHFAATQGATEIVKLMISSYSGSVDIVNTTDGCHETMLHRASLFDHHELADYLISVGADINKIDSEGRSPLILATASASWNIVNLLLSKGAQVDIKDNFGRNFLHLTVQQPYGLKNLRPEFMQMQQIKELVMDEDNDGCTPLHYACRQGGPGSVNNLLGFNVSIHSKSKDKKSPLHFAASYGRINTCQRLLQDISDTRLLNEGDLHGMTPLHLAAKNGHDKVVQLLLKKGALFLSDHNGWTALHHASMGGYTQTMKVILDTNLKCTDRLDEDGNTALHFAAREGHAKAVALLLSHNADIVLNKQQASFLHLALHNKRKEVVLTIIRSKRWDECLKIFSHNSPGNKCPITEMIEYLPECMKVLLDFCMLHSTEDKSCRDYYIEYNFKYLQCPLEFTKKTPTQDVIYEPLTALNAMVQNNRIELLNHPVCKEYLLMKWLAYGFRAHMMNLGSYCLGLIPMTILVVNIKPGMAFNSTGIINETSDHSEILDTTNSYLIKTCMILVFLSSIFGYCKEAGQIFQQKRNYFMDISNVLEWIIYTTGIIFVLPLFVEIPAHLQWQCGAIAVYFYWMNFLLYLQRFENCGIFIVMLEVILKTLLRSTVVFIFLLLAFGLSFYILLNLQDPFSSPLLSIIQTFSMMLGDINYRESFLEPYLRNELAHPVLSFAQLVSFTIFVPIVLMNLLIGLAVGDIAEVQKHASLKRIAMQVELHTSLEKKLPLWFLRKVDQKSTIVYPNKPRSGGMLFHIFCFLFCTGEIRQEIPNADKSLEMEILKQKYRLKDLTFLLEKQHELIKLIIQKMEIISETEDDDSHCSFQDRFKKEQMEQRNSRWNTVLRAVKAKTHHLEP
pIC50: −log10 of the molar value.
metric: pIC50

Example entries begin here.
C[C@@H](NC(=O)[C@@H]1CCCN1S(=O)(=O)c1ccc(F)cc1)c1cccc(-c2ccc(C(F)(F)F)cc2)c1 [Example 114]; 5.53
O=C(NCc1cc(-c2ccc(C(F)(F)F)cc2)ncn1)[C@@H]1CCCN1S(=O)(=O)c1cc(Cl)sc1Cl [Example 173]; 5.94
O=C(NCc1cc(-c2ccc(C(F)(F)F)cc2)ncn1)[C@@H]1CCCN1S(=O)(=O)c1ccc(OC(F)(F)F)cc1 [Example 149]; 5.44
O=C(NCc1cc(-c2ccc(C(F)(F)F)cc2)nc(N2CCN(Cc3cccnc3)CC2)c1)[C@@H]1C=CCN1S(=O)(=O)c1ccc(Cl)s1 [Example 355]; 6.05

I = O=C(NCc1cc(-c2ccc(C(F)(F)F)cc2)ncn1)[C@@H]1CCCN1S(=O)(=O)c1ccc([N+](=O)[O-])cc1 [Example 163]
II = CC1CCCN1c1cc(CNC(=O)[C@@H]2CCCN2S(=O)(=O)c2ccc(F)cc2)cc(-c2ccc(C(F)(F)F)cc2)n1 (stereo partly drawn) [Example 336]
[ask] Higher pIC50 between I and II ? Record your answer as the label of the chosen record.
[reply] I
(I: 7.85, II: 6.95)

----------
A collection of molecules and their measured pIC50
target: UniProtKB O75762; test: Alternative TRPA1 Ca2+ fluorometry assay (hTRPA1/TREx-HEK293 cells, Fluo-4, FDSS 6000); format: cell-based; parameters: expressed in transfected cells; conditions: Fluo-4-AM, agonist 6,11-dihydro-5H-dibenzo[b,e]azepine-10-carboxylic acid methyl ester 25 nM, procedure used for Examples 184, 190 to 192, 194 to 316
pIC50: −log10 of the molar value.

Example results:
O=C(NCc1cc(-c2ccc(C(F)(F)F)cc2)nc(N2CCc3ccccc3C2)n1)[C@@H]1CCCN1S(=O)(=O)c1ccc(F)cc1; ~5.55
CCCCNc1nc(CNC(=O)[C@@H]2CCCN2S(=O)(=O)c2ccc(F)cc2)cc(-c2ccc3c(c2)OCO3)n1; ~5.62
O=C(NCc1cc(-c2ccc(F)cc2)nc(N2CCN(c3ccccc3F)CC2)n1)[C@@H]1CCCN1S(=O)(=O)c1ccc(F)cc1; 5.93
O=C(NCc1cc(-c2ccccc2Cl)nc(N2CCN(c3ccccc3F)CC2)n1)[C@@H]1CCCN1S(=O)(=O)c1ccc(F)cc1; ~5.96

[ask] Suppose we examine the molecule `O=C(NCc1cc(-c2ccc(C(F)(F)F)cc2)nc(N2CCN(c3ccccc3F)CC2)n1)[C@@H]1CCCN1S(=O)(=O)c1cccs1` ; what pIC50 value has been reported?
[reply] ~6.03

[ask] Then what about the molecule `O=C(NCc1cc(-c2ccc(Br)cc2)nc(NC2CC2)n1)[C@@H]1CCCN1S(=O)(=O)c1ccc(F)cc1` ?
[reply] ~6.15

----------
molecular target: Human TRPA1 (Homo sapiens, UniProt O75762); assay: Assay 1: In vitro cellular testing of TRPA1 modulation (CHO-TREx, Fluo-3 calcium fluorescence, AITC agonist); format: cell-based; set-up: expressed in transfected cells; host or cells: CHO-TREx cells (Invitrogen), vector pcDNA4/TO; details: CHO-TREx cells expressing human TRPA1; Fluo-3 fluorescence (FLIPR/Tetra); agonist 15 μM allyl isothiocyanate (AITC); 30 minute antagonist incubation
metric: IC50 (nM)

Study these solved cases before continuing.
CNc1nc(CNC(=O)[C@@H]2CCCN2S(=O)(=O)c2ccc(Cl)s2)cc(-c2ccc(C(F)(F)F)cc2)n1; 81
O=C(NCc1ccnc(-c2ccc(C(F)(F)F)cc2)n1)[C@@H]1CCCN1S(=O)(=O)c1ccc(F)cc1; 806
CC(C)CN1CCN(c2nc(CNC(=O)[C@@H]3CCCN3S(=O)(=O)c3ccc(F)cc3)cc(-c3ccc(C(F)(F)F)cc3)n2)CC1; 36
O=C(NCc1cc(-c2ccc(OC(F)(F)F)cc2)ccn1)[C@@H]1C=CCN1S(=O)(=O)c1ccc(F)cc1; 28
COc1ccc(-c2cccc(CNC(=O)[C@@H]3CCCN3S(=O)(=O)c3ccc(F)cc3)c2)cn1; 340
CC(Nc1cc(CNC(=O)[C@@H]2CC(F)(F)CN2S(=O)(=O)c2ccc(Cl)s2)cc(-c2ccc(C(F)(F)F)cc2)n1)c1ccncc1 (stereo partly shown); 1830
CNc1cc(CNC(=O)[C@@H]2CC(F)(F)CN2S(=O)(=O)c2ccc(F)cc2)cc(-c2ccc(C(F)(F)F)cc2)n1; 2280
CNc1cc(CNC(=O)[C@@H]2CCCN2S(=O)(=O)c2ccc(F)cc2)cc(-c2ccc(C(F)(F)F)cc2)n1; 1010
COc1ccc(-c2cccc(CNC(=O)[C@@H]3CCCN3S(=O)(=O)c3ccc(F)cc3)c2)nc1; 8300
CC(C)CN1CCN(c2cc(CNC(=O)[C@@H]3CCCN3S(=O)(=O)c3ccc(Cl)s3)cc(-c3ccc(C(F)(F)F)cc3)n2)CC1; 79

1 = O=C(NCc1cc(-c2ccc(C(F)(F)F)cc2)ncn1)[C@@H]1CCCN1S(=O)(=O)c1ccoc1
2 = O=C(NCc1cc(-c2ccc(C(F)(F)F)cc2)nc(N2CCN(Cc3ccccn3)CC2)c1)[C@@H]1C=CCN1S(=O)(=O)c1ccc(Cl)s1
3 = CC(C)N1CCN(c2nc(CNC(=O)[C@@H]3CCCN3S(=O)(=O)c3ccc(F)cc3)cc(-c3ccc(C(F)(F)F)cc3)n2)CC1
4 = C[C@H](NC(=O)[C@@H]1CCCN1S(=O)(=O)c1ccc(Cl)s1)c1cccc(-c2ccc(C(F)(F)F)cc2)c1
5 = O=C(NCc1cc(-c2ccc(C(F)(F)F)cc2)ncn1)[C@@H]1CC(F)(F)CN1S(=O)(=O)c1ccc(Cl)s1
[ask] # ascending order, key=IC50 Form entry: labels listed in requested order.
[reply] 4, 1, 5, 3, 2
(4: 15 nM, 1: 45 nM, 5: 228 nM, 3: 542 nM, 2: 1070 nM)

A = O=C(NCc1cccc(-c2ccc(C(F)(F)F)cc2)c1)[C@@H]1CC(F)(F)CN1S(=O)(=O)c1ccc(F)cc1
B = CC(Nc1cc(CNC(=O)[C@@H]2CC(F)(F)CN2S(=O)(=O)c2ccc(Cl)s2)cc(-c2ccc(C(F)(F)F)cc2)n1)c1cccnc1 (stereo partly shown)
[ask] Input pair: A , B . Output: entry with lower IC50. Bench note: the answer is the label of the chosen record.
[reply] A
(A: 47 nM, B: 2610 nM)

A = CC1CCCN1c1nc(CNC(=O)[C@@H]2CCCN2S(=O)(=O)c2ccc(F)cc2)cc(-c2ccc(C(F)(F)F)cc2)n1 (stereo partly shown)
B = O=C(NCc1cc(-c2ccc(C(F)(F)F)cc2)ccn1)[C@@H]1CCCN1S(=O)(=O)c1ccc(F)cc1
[ask] # min-compare on IC50 between A and B Lab log: write the label of the selected item as the result.
[reply] B

I = CN(C)c1nc(CNC(=O)[C@@H]2CCCN2S(=O)(=O)c2ccc(Cl)s2)cc(-c2ccc(C(F)(F)F)cc2)n1
II = CN(C)c1cc(CNC(=O)[C@@H]2CC(F)(F)CN2S(=O)(=O)c2ccc(F)cc2)cc(-c2ccc(C(F)(F)F)cc2)n1
III = O=C(NCc1cc(-c2ccc(C(F)(F)F)cc2)ncn1)[C@@H]1CCCN1S(=O)(=O)c1ccc(F)c(F)c1
[ask] Please list these molecules in decreasing order of IC50. Your reply should list the labels following the order given in the request.
[reply] II, III, I
(II: 461 nM, III: 28 nM, I: 12 nM)

I = C[C@H](NC(=O)[C@@H]1CCCN1S(=O)(=O)c1ccc(F)cc1)c1cccc(-c2ccc(C(F)(F)F)cc2)c1
II = O=C(NCc1cc(-c2ccc(C(F)(F)F)cc2)nc(-c2cccc(C(F)(F)F)c2)n1)[C@@H]1CCCN1S(=O)(=O)c1ccc(F)cc1
[ask] Given the listed records, identify the one among I and II with higher IC50. To answer, give the label that identifies your chosen option.
[reply] I

----------
Target: Human TRPA1 (Homo sapiens)
Assay: Alternative TRPA1 Ca2+ fluorometry assay (hTRPA1/TREx-HEK293 cells, Fluo-4, FDSS 6000)
Format: cell-based
Parameters: expressed in transfected cells
Conditions: Fluo-4-AM, agonist 6,11-dihydro-5H-dibenzo[b,e]azepine-10-carboxylic acid methyl ester 25 nM, procedure used for Examples 184, 190 to 192, 194 to 316
Procedure: In alternative embodiments, the assay was performed using the following procedure for Examples 184, 190 to 192, and 194 to 316: […] The cells were loaded with 5 mg/l Fluo-4-AM (Molecular Probes, Invitorgen, Merelbeke, Belgium) dissolved in HBSS seeding medium supplemented with 0.7 g/l Probenecid (Sigma) and incubated for 1 h at 37° C. and subsequently at 20° C. for 1 to 2 h. The fluorescence was measured in the FDSS 6000 imaging based plate reader (Hamamutsu Photonics K.K., Hamamutsu City, Japan). […]
pIC50: −log10 of the molar value.
metric: pIC50

O=C(NCc1cc(-c2ccc(Br)cc2)nc(NCCO)n1)[C@@H]1CCCN1S(=O)(=O)c1ccc(F)cc1 [Example 293]; 5.57
O=C(NCc1cc(-c2ccccc2F)nc(N2CCN(c3ccccc3F)CC2)n1)[C@@H]1CCCN1S(=O)(=O)c1ccc(F)cc1 [Example 245]; 5.61
O=C(NCc1cc(-c2ccc(Br)cc2)nc(N2CCc3ccccc3C2)n1)[C@@H]1CCCN1S(=O)(=O)c1ccc(F)cc1 [Example 222]; 5.04
O=C(NCc1cc(-c2ccc(Br)cc2)nc(NCCN2CCOCC2)n1)[C@@H]1CCCN1S(=O)(=O)c1ccc(F)cc1 [Example 316]; 5.84
O=C(NCc1cc(-c2ccc(Br)cc2)nc(N2CCC[C@H]2CO)n1)[C@@H]1CCCN1S(=O)(=O)c1ccc(F)cc1 [Example 302]; 5.06
O=C(NCc1cc(-c2ccc(C(F)(F)F)cc2)nc(N2CCN(c3ccccc3F)CC2)n1)[C@@H]1CCCN1S(=O)(=O)c1cc(F)cc(F)c1 [Example 281]; 5.26
O=C(NCc1cc(-c2ccccc2)nc(N2CCN(c3ccccc3F)CC2)n1)[C@@H]1CCCN1S(=O)(=O)c1ccc(F)cc1 [Example 251]; 5.60
O=C(NCc1cc(-c2ccc(C(F)(F)F)cc2)nc(N[C@@H](CO)Cc2ccccc2)n1)[C@@H]1CCCN1S(=O)(=O)c1ccc(F)cc1 [Example 191]; 5.67

a = O=C(NCc1cc(-c2ccc3c(c2)OCO3)nc(N2CCOCC2)n1)[C@@H]1CCCN1S(=O)(=O)c1ccc(F)cc1 [Example 207]
b = O=C(NCc1cc(-c2ccc(Br)cc2)nc(N2CCN(c3ccccn3)CC2)n1)[C@@H]1CCCN1S(=O)(=O)c1ccc(F)cc1 [Example 216]
[ask] # return whichever of a and b has the smaller pIC50 Your answer should be the label of the entry you select.
[reply] a
(a: 5.04, b: 5.92)
